test_target: Genome polyprotein (Dengue virus type 2 (strain 16681-PDK53))
protocol_description: flavivirus cap methylation enzyme inhibition – biochemical, confirmation dose response, primary screen (AID 588689)
test_conditions: Dengue-2 NS5 methyltransferase capping enzyme assay, at 25 µM, active compounds read high
Screen size: about 340,000 compounds; about 1,000 (0.29%) were called active. The list is a sample of the results. Potency and affinity values are given separately.

# molecule, inhibition (%)
measured = [
    ("COc1ccc(C2CC(c3ccccc3)=NN2c2ccc(N)cc2)cc1 (configuration not stated)", -12.8),
    ("COc1ccc(CCC(=O)OCC(=O)c2ccc[nH]2)cc1OC", 1.46),
    ("COc1ccc(C2CC(c3ccccc3)=NN2c2ccc(C(N)=O)cc2)cc1 (configuration not stated)", -4.66),
    ("CCN(CCCNC(=O)C1CCN(S(=O)(=O)CC)CC1)c1ccccc1", 0),
    ("COC(=O)c1ccccc1C(=O)N1CCC(CCC(=O)NC2CC2)CC1", -9.72),
    ("C=CCN1C(=O)C(Cc2ccc(F)cc2)S/C1=N/N=C/c1cccs1 (configuration not stated)", -3.47),
    ("Cc1cc(O)ccc1C1(c2ccc(O)cc2C)OC(=O)c2ccccc21", -9.01),
    ("CCN(CC)S(=O)(=O)c1ccc(C(=O)NCCOC(=O)c2ccc(F)cc2F)cc1", 8.01),
    ("Cc1cc(Br)ccc1NC(=O)CNC(=O)CSc1n[nH]c(N)n1", -4.68),
    ("CCC(C)(C(=O)NC1CCCC1)N(C(=O)CNC(=O)c1ccccc1)c1c(C)n(C)n(-c2ccccc2)c1=O (configuration not stated)", 0),
    ("Cc1cc(OC(C)C(=O)NC2CCN(Cc3ccccc3)CC2)c2c(C)cc(=O)oc2c1 (configuration not stated)", -2.72),
    ("Cc1cccc(N2C(=O)c3ccc(Br)cc3C2=O)n1", -2.38),
    ("O=C(O)c1cccc(Nc2nc3ccccc3nc2NS(=O)(=O)c2ccccc2)c1", 19.8),
    ("CSc1nc(C=Nc2ccccc2Cl)c(O)n1Cc1cccc(Cl)c1", -15.4),
    ("O=C1OC2(c3ccccc31)c1ccccc1-c1ccccc12", 8.53),
    ("COC1=C(N)C(=O)c2nc(C)ccc2C1=O", 12.3),
    ("O=C(COC(=O)c1cccc(F)c1)Nc1cccc(S(=O)(=O)N2CCOCC2)c1", -5.49),
    ("Cc1ccc(-c2ccc(/C=N/N3C(=O)C4C5C=CC(C6CC56)C4C3=O)o2)c([N+](=O)[O-])c1 (configuration not stated)", -2.05),
    ("CCOC(=O)N1CCC(NC(=O)c2cc3sccc3n2CC)CC1", -4.86),
    ("Cc1ccccc1NC(=O)Cn1nnc(S(=O)(=O)c2ccc(C(C)(C)C)cc2)c1N", -3.62),
    ("O=C(NC1CCCc2ccccc21)C1CCN(c2c3c(nc4ncnn24)CCC3)CC1 (configuration not stated)", -6.95),
    ("Cc1ncc(C(O)c2ccc(N(C)C)cc2)n1Cc1ccccc1 (configuration not stated)", 0),
]

###

Here the recorded inhibition is given for each entry.
test_target: Genome polyprotein (Dengue virus type 2 (strain 16681-PDK53))
protocol_description: flavivirus cap methylation enzyme inhibition – biochemical, confirmation dose response, primary screen (AID 588689)
test_conditions: Dengue-2 NS5 methyltransferase capping enzyme assay, at 25 µM, active compounds read high
Hit rate of the full screen: of about 340,000 compounds, about 1,000 (0.29%) were called active. These entries were drawn from the full list. Measured potencies and affinities stand elsewhere.

# compound, inhibition
measured = [
    ("Nc1c(C(=O)O)sc2nc(-c3ccccc3)cc(-c3ccc(F)cc3)c12", "-4.6% (inactive)"),
    ("CC1=NN(c2ccc(Cl)c(C(=O)O)c2)C(=O)C1", "10.9% (inactive)"),
    ("COc1cccc(Nc2nc3ccccc3nc2NS(=O)(=O)c2cccs2)c1", "16.4% (inactive)"),
    ("Cc1oc2c(cc(NS(=O)(=O)c3ccc(F)cc3)c3ccccc32)c1C(=O)O", "11.6% (inactive)"),
    ("CC(=O)Nc1ccc(S(=O)(=O)Nc2nc3ccccc3nc2Nc2ccccc2)cc1", "-18.8% (inactive)"),
    ("CCOc1cc(/C=C2/NC(=O)NC2=O)cc([N+](=O)[O-])c1O", "22.9% (inactive)"),
    ("CCCC(C)NNC(=O)c1cc2ccccc2[nH]1 (stereo unspecified)", "0% (inactive)"),
    ("CCOC(=O)c1c(C)oc2ccc(NS(=O)(=O)c3ccc(C(=O)O)cc3)cc12", "4.37% (inactive)"),
    ("CC(=O)c1c(C)oc2c1cc(NS(=O)(=O)c1ccc(C(=O)O)cc1)c1ccccc12", "15.7% (inactive)"),
    ("CN(Cc1ccccc1)S(=O)(=O)c1ccc(Cl)c(C(=O)N2CCC(C(N)=O)CC2)c1", "4.28% (inactive)"),
    ("Nc1c(C(=O)O)sc2nc(-c3ccccc3)cc(-c3ccccc3)c12", "-27% (inactive)"),
    ("Cc1ccc(CN2C(=O)N/C(=C/c3ccc(-c4ccc(C(=O)O)cc4)o3)C2=O)cc1", "14.9% (inactive)"),
    ("CC1CCc2c(sc3ncnc(SCC(=O)Nc4ccc(C(=O)O)cc4)c23)C1 (stereo unspecified)", "-4.98% (inactive)"),
    ("COc1ccc(S(=O)(=O)Nc2cc3c(C(C)=O)c(C)oc3c3ccccc23)cc1", "-1.56% (inactive)"),
    ("COc1cc(/C=C2\\C(=O)NN(c3ccc(C)cc3)C2=O)cc([N+](=O)[O-])c1O", "17.9% (inactive)"),
    ("Cc1c(C(=O)O)cccc1-c1ccc(/C=C2/NC(=O)N(c3ccccc3)C2=O)o1", "-1.55% (inactive)"),
    ("CNC(=O)N(O)C1N(/N=C/c2ccc(C)cc2)C(=S)SC1(C)C (stereo unspecified)", "-3.93% (inactive)"),
    ("O=C(C1=C(O)C(=O)N(CCN2CCOCC2)C1c1ccco1)c1cc2ccccc2o1 (stereo unspecified)", "-8.02% (inactive)"),
    ("COc1cc(/C=C2/C(=O)NN(c3ccc(Cl)cc3)C2=O)ccc1OC(=O)c1ccco1", "15.2% (inactive)"),
    ("CCOC(=O)c1cc(-c2ccc(/C=N\\n3cnnc3)o2)ccc1Cl", "-3.91% (inactive)"),
    ("CCCOC(=O)c1cc(-c2ccc(/C=C3/C(=O)N(C)C(=O)C(C#N)=C3C)o2)ccc1Cl", "-12.3% (inactive)"),
]

###

test_target: Genome polyprotein (Dengue virus type 2 (strain 16681-PDK53))
protocol_description: flavivirus cap methylation enzyme inhibition – biochemical, confirmation dose response, primary screen (AID 588689)
test_conditions: Dengue-2 NS5 methyltransferase capping enzyme assay, at 25 µM, active compounds read high
Out of some 340,000 compounds screened, about 1,000 (0.29%) were called active. These entries were drawn from the full list. Entries with a potency or affinity are not part of this list.
Here the recorded inhibition is given for each entry.

# molecule, unit, inhibition
measured = [
    ("Cc1ccc([C@H]2C(C(=O)O)=CC[C@@H](c3ccc(C)cc3)N2S(=O)(=O)c2ccc(C)cc2)cc1", "%", 5.29),
    ("Cc1ccc(NS(=O)(=O)Cc2ccccc2)cc1Cl", "%", -1.36),
    ("COCCNC(=O)c1ccc2c(=O)n(Cc3ccco3)c(SCC(=O)Nc3ccc(OC)cc3OC)nc2c1", "%", -3.55),
    ("COc1ccc(/C=C2/C(=O)N(c3ccccc3)N=C2C)cc1Br", "%", 18.3),
    ("CCN(CC)S(=O)(=O)c1ccc(Nc2ccc(-c3ccc4c(c3)OCCO4)nn2)cc1", "%", -4.94),
    ("CNC(=O)c1ccsc1NC(=O)CS(=O)(=O)c1ccc(F)cc1", "%", -0.55),
    ("Cc1ccc([C@H]2C(C(=O)O)=C[C@@H](CC3CCCC3)N2S(=O)(=O)c2ccc(C)cc2)cc1", "%", 20.2),
    ("O=C1NC(=O)N(c2ccccc2)C1=O", "%", 0),
    ("CC(C)c1ccc(Nc2nc(N3CCOCC3)nc(N3CCOCC3)n2)cc1", "%", -4.95),
    ("N#Cc1ccc(CN2CCN(C(=O)CCNS(=O)(=O)c3ccc(F)c(F)c3)CC2)cc1", "%", -7.08),
    ("CN(C(=O)CC1C(=O)NCCN1Cc1ccccc1C(F)(F)F)C1CCOCC1 (stereo unspecified)", "%", 0.91),
    ("O=C(CN1C(=O)/C(=C/c2cccc(Br)c2)SC1=S)N1CCCC1", "%", -5.1),
    ("Cc1c(OCC(=O)N2CCC(C(N)=O)CC2)ccc2c3c(c(=O)oc12)CCCC3", "%", -4.35),
    ("Cc1cc(NC(=O)CN2C(=O)/C(=C/c3ccccc3F)SC2=S)no1", "%", 2.68),
    ("O=C(CCCN1C(=O)/C(=C/c2ccccc2Cl)SC1=S)NNC(=O)c1ccccc1", "%", 8.33),
    ("CC1=NN(c2ccccc2)C(=O)/C1=C\\N(O)c1ccccc1", "%", 1.98),
    ("Cc1ccc(S(=O)(=O)N2[C@@H](c3ccc(Br)cc3)C(C(=O)O)=CC[C@H]2c2cccc(Cl)c2)cc1", "%", -1.32),
    ("COc1cc(C(=O)N2CCN(c3ccccc3)CC2)c([N+](=O)[O-])cc1OC", "%", -3.88),
    ("Cc1ccc(SC(CC(=O)c2ccc(C)cc2)C(=O)O)cc1 (stereo unspecified)", "%", 16.8),
    ("COc1cc2c(=O)[nH]c3cc([N+](=O)[O-])ccc3c2cc1[N+](=O)[O-]", "%", 8.05),
    ("O=C(O)c1cnc(-c2ccccc2)nc1C(F)(F)F", "%", -8.19),
    ("O=C1/C(=C\\c2cccc([N+](=O)[O-])c2O)SC(=S)N1Cc1ccccc1", "%", 32.5),
    ("CCOc1ccc(C(=O)Cc2cc(OC)c(OC)cc2[N+](=O)[O-])cc1", "%", -1.39),
    ("CC(C)NC(=O)CSc1nccc(-c2cccs2)n1", "%", 6.26),
    ("CCc1ccc(N2C(=O)c3sc4nnc(C)c(=O)n4c3C2=O)cc1", "%", -0.68),
    ("O=C(NCCCn1ccnc1)c1ccc(Cl)s1", "%", -4.6),
    ("Cc1ccc(S(=O)(=O)N2[C@@H](c3ccccc3)C(C(=O)O)=CC[C@H]2c2ccc(Cl)c(Cl)c2)cc1", "%", 10.4),
    ("O=C1N/C(=C/c2ccc(Br)s2)C(=O)N1c1ccccc1", "%", -5.43),
    ("CCCCCCCCN1[C@@H](CC(=O)OCC)c2cc(C(F)(F)F)ccc2S1(=O)=O", "%", -6.14),
    ("Cc1ccc(S(=O)(=O)N2[C@@H](c3ccc(Cl)cc3)C(C(=O)O)=C[C@H]2CC2CCCC2)cc1", "%", 19.2),
    ("O=C(O)c1cccc(N2C(=O)c3ccc4c5c(ccc(c35)C2=O)C(=O)N(c2cccc(C(=O)O)c2)C4=O)c1", "%", 16.5),
    ("Cc1ccc(-c2cccc(C3CC=CC4C3C(=O)N(Cc3ccccc3)C4c3cc(C)ccc3F)c2)cc1 (stereo unspecified)", "%", -5.46),
    ("Cc1ccc(S(=O)(=O)N2[C@@H](c3ccc(C(C)(C)C)cc3)C(C(=O)O)=CC[C@H]2c2ccc(Cl)c(Cl)c2)cc1", "%", 9.77),
    ("O=[N+]([O-])c1cnc2ccccc2c1", "%", 3.89),
    ("CC1=NN(c2ccccc2)C(=O)/C1=C\\c1ccc(Br)s1", "%", -0.88),
    ("O/N=C/c1cc(Br)ccc1OCc1ccccc1F", "%", 8.73),
    ("Cc1ccc(NC(=O)C2CCCN(C(=O)Nc3ccc(F)cc3)C2)cc1 (stereo unspecified)", "%", -4.13),
    ("CCOc1ccc(OCCCC(=O)NCCOc2ccccc2OC)cc1", "%", -5.46),
    ("COc1ccc(C(C#N)=C2C=C(Cl)C(=NO)C=C2Cl)cc1", "%", 27.6),
    ("O=c1c2c([N+](=O)[O-])cc([N+](=O)[O-])cc2nc2ccccn12", "%", 0),
    ("Cc1ccc(S(=O)(=O)N2[C@@H](c3ccc(Cl)cc3)C(C(=O)O)=CC[C@H]2c2ccc(Cl)c(Cl)c2)cc1", "%", 27.3),
]
